In this section we review reported growth values for a set of molecules.
Tested on: SR leukemia
Test: NCI-60 one-dose screen, 48 h (100 = growth as untreated, 0 = no growth, -100 = all killed)
Conditions: 10 µM unless noted
The panel holds about 83,000 compounds, 20% with a hit somewhere; the sample as a whole holds those more often.
# value in %; strip the unit string

MOLECULE	OBSERVED_VALUE
CC(=O)Oc1ccc(CCN2C(=O)CSC2=S)cc1	68.9
COc1ccc(NC(=O)[C@H](C)NC(=O)OC(C)(C)C)cc1C(=O)Nc1cccc(-c2cc(=O)c3c(OC)c(OC)c(OC)cc3o2)c1	8.47
Clc1ccc(-c2csc(N/N=C/c3nc4ccccc4n3C3CC3)n2)cc1	96.6
CN(C)c1ncc(/C=C2\SC(=S)N(Cc3ccccc3Cl)C2=O)s1	87.8

Per the reported SR leukemia data, O=C(O)c1ccc(-n2cc(CNc3ccc(Cl)cc3)c(-c3ccc(F)cc3)n2)cc1 has growth of 121

Per the reported SR leukemia data, COC[C@]12CC[C@@H](C)[C@H](C)[C@H]1C1=CC[C@@H]3[C@@]4(C)CCCNC(C)(C)[C@@H]4CC[C@@]3(C)[C@]1(C)CC2 has growth of -3.33

Per the reported SR leukemia data, CCn1c2ccc(/C=N/OCCCN(C)C)cc2c2cc(/C=N/OCCCN(C)C)ccc21 has growth of -40.8

Per the reported SR leukemia data, COc1ccc(-c2nnc(SCc3ccc(O)c4ncccc34)o2)cc1 has growth of 45.8

Per the reported SR leukemia data, COc1ccc(-c2nc(SCCC(C)C)nc(N/N=C\c3ccc(O)cc3)c2C#N)cc1 has growth of 25.5

###

Tested on: OVCAR-3 ovarian
Assay: NCI-60 one-dose screen, 48 h
Conditions: 10 µM unless noted
This is part of a sample that, as a whole, favours compounds with a hit. Of some 83,000 tested, about 20% had one in any assay. Activity calls are given as the source filed them. How the source made its calls: active means growth percent below 10; inactive means the rest.
In this exercise, the only acceptable responses are active, inactive

A selection of reference data follows.
COMPOUND	TARGET_SYSTEM	CLASSIFICATION
CCOC(=O)Nc1ccc(-c2nc(-c3cccc(O)c3)c(-c3ccnc(Br)c3)[nH]2)cc1	OVCAR-3 ovarian	inactive
Nc1ccc(-c2nnc(SCc3ccc(O)c4ncccc34)o2)cc1	OVCAR-3 ovarian	active

Here's the next entry for you.
I would be grateful if you could indicate the recorded call for CN1C(=O)N(C)C2Nn3c(s/c(=C\c4ccccn4)c3=O)=NC21 (stereo not drawn) .
inactive

###

Tested on: NCI-H23 lung
Experiment: NCI-60 one-dose screen, 48 h (100 = growth as untreated, 0 = no growth, -100 = all killed)
Settings: 10 µM unless noted
The panel holds about 83,000 compounds, 20% with a hit somewhere; the sample as a whole holds those more often.
PROPERTY_NAME: growth (%)
# value in %; strip the unit string

Sample records with growth:
COMPOUND	growth, %
NNC(=O)c1sc2nc(-c3cnccn3)cc(-c3cccs3)c2c1N	98.6
COCCOc1ccc(-c2csc(NC(C)=O)n2)cc1NS(=O)(=O)c1cccc2c(N(C)C)cccc12	104

Turning now to a further compound:
Lookup result for O=C1[C@H]2Cc3c([nH]c4ccccc34)[C@@H](c3ccc(Cl)cc3)N2C(=O)CN1C1CCN(Cc2c(Cl)cccc2Cl)CC1 ; measured growth: 27.7

###

Tested on: A498 renal
Test: NCI-60 one-dose screen, 48 h (100 = growth as untreated, 0 = no growth, -100 = all killed)
Conditions: 10 µM unless noted
Method: Growth inhibition of the A498 human tumor cell line is measured as a screen for anti-cancer activity. Cells are grown in 96 well plates and exposed to the test compound for 48 hours. Compounds are tested at a single concentration, which is 10^-5 M for most compounds. The reported endpoint is percent growth (GI% or GIPRCNT), where numbers from 0 - 100% represent growth inhibition, and numbers from -100% - 0 represent cell death. For example, a value of 40 represents 60% growth inhibition. […]
Compounds without any hit were thinned out: in the full panel of roughly 83,000, 20% have a hit.
PROPERTY_NAME: growth (%)
# value in %; strip the unit string

Sample records with growth:
MOLECULE	growth [%]
CCCC(=O)NC(c1cccnc1)c1ccc2c(C)ccnc2c1O (centres undefined)	37.8
O=C1c2c(c3c4cc(Br)ccc4[nH]c3c3ccc4ccccc4c23)C(=O)N1CCN1CCNCC1	97.1

Per the reported A498 renal data, Oc1ccc(CSc2nnc(-c3ccc(Oc4ccccc4)cc3)o2)c2cccnc12 has growth of 78.9

Per the reported A498 renal data, C=CCn1c(SCC(=O)Nc2cccc(C(=O)/C=C/c3cccc([N+](=O)[O-])c3)c2)nc2ccccc2c1=O has growth of 81.1

Per the reported A498 renal data, CC1CCN(S(=O)(=O)c2ncsc2-c2ccccc2)CC1 has growth of 81.6

Per the reported A498 renal data, COc1ccc2oc3c4[nH]c5ccccc5c4c4c(c3c2c1)C(=O)N(O)C4=O has growth of 75.4

Per the reported A498 renal data, O=C1/C(=C/c2ccccc2[N+](=O)[O-])Oc2ccc(O)cc21 has growth of 87.3

Per the reported A498 renal data, CCC(=O)Nc1ccc(-c2nc(-c3cccc(O)c3)c(-c3ccnc(Br)c3)[nH]2)cc1 has growth of 70.5

Per the reported A498 renal data, CCCCCCNC(=O)Oc1ccc(/C(=C(/C)c2ccccc2)c2ccc(OCCN(C)C)cc2)cc1 has growth of 76.5

###

In this section we review reported growth values for a set of molecules.
System: RXF 393 renal
Experiment: NCI-60 one-dose screen, 48 h (100 = growth as untreated, 0 = no growth, -100 = all killed)
Settings: 10 µM unless noted
Description: Cells are grown in 96 well plates and exposed to the test compound for 48 hours. Compounds are tested at a single concentration, which is 10^-5 M for most compounds. The reported endpoint is percent growth (GI% or GIPRCNT), where numbers from 0 - 100% represent growth inhibition, and numbers from -100% - 0 represent cell death. For example, a value of 40 represents 60% growth inhibition. A value of 0 means no net growth occurred over the course of the experiment. […]
About 83,000 compounds went through this panel and 20% of them were active in at least one assay; those are over-represented in the sample as a whole.
# value in %; strip the unit string

Sample records with growth:
MOLECULE	PROPERTY_NAME	UNITS_LABEL	OBSERVED_VALUE
COc1ccc(-c2nc(SCC(C)C)nc(N/N=C\c3cccc([N+](=O)[O-])c3)c2C#N)cc1	growth	%	18.1
COc1cc2oc(-c3cccc(NC(=O)c4cc(NC(=O)[C@H](C)NC(=O)OC(C)(C)C)ccc4C)c3)cc(=O)c2c(OC)c1OC	growth	%	67.7
C(=C(\C1=NCCN1)n1cnc2ccccc21)/c1cccc2ccccc12	growth	%	46.9
C#CCOc1ccc(C(Nc2cc(Cl)ccc2Cl)c2nnnn2C2CCCCC2)cc1 (centres undefined)	growth	%	92.6
Cc1ccc(NC(=O)c2ccc(CN3CCN(C)CC3)c(I)c2)cc1Oc1ccc(-c2[nH]nc3ncnc(N)c23)cc1	growth	%	44.9
Cc1ccc(-c2csc(N/N=C/c3nc4ccccc4n3C3CC3)n2)cc1	growth	%	71.6
Nc1c(C(=O)c2ccccc2)sc2nc(-c3cnccn3)cc(-c3cccs3)c12	growth	%	108
NS(=O)(=O)c1ccc(-n2cc(CC=O)nn2)cc1	growth	%	99.5
Oc1ccc(CSc2nnc(-c3ccncc3)n2-c2ccccc2)c2cccnc12	growth	%	23.6
O=C(Nc1ccc(F)cc1)c1cc(-c2ccc(F)cc2F)ccc1O	growth	%	-21.1

Lookup result for O=C(O)c1ccc(-n2cc(CNc3ccc(Cl)cc3)c(-c3ccc(F)cc3)n2)cc1 ; measured growth: 94.9

Lookup result for CCC(=O)Nc1ccc(-c2nc(-c3cccc(O)c3)c(-c3ccnc(Br)c3)[nH]2)cc1 ; measured growth: -4.84

Lookup result for Cc1ccc(/C=C/c2nn3c(-c4ccco4)nnc3s2)cc1 ; measured growth: 95.5

Lookup result for C=CCn1c(SCC(=O)c2ccc(OC)cc2)nnc1-c1ccc(OC)cc1 ; measured growth: 87.9

Lookup result for CC(=O)Nc1cccc(-n2cnc3cc(-c4ccc(O)cc4)ccc32)c1 ; measured growth: -6.91

Lookup result for O=S(=O)(NCCCNc1nccc(-n2cnc3ccccc32)n1)c1ccc(F)cc1 ; measured growth: 163

Lookup result for CNC(=O)c1cc(Oc2ccc3nc(NC(=O)c4cccc(C(F)(F)F)c4)sc3c2)ccn1 ; measured growth: 106

Lookup result for Cn1cc(-c2nnc(N)nc2-c2cn(C)c3ccc(F)cc23)c2cc(F)ccc21 ; measured growth: 104

Lookup result for N#C/C(=C\c1ccc(Cl)cc1Cl)C(N)=O ; measured growth: 102

###

Test system: A498 renal
Test: NCI-60 one-dose screen, 48 h (100 = growth as untreated, 0 = no growth, -100 = all killed)
Conditions: 10 µM unless noted
This is part of a sample that, as a whole, favours compounds with a hit. Of some 83,000 tested, about 20% had one in any assay.
In plain terms, low growth, meaning strictly below 70%, gives fulfilled, and everything else gives not fulfilled.

MOLECULE	CLASSIFICATION
ClC(Cl)c1nc(-c2cccs2)n2nc(-c3ccccc3)cc2n1	fulfilled
COc1ccc([C@H]2[C@H](O)C(=O)N2c2cc(OC)c(OC)c(OC)c2)cc1O	fulfilled
O=C(Cn1cc(CN2C(=O)c3ccc([N+](=O)[O-])cc3C2=O)nn1)Nc1ccc(F)cc1Cl	not fulfilled

Problem: For the molecule Nc1nc(N)c2c(n1)NC(c1ccc(Cl)cc1)CC(c1ccc(Nc3nc(NCCO)nc(Nc4ccc(Cl)cc4)n3)cc1)=N2 (configuration not stated) , is growth under 70%?
not fulfilled

Problem: For the molecule Cc1ccccc1/C=C/c1nn2c(-c3ccoc3C)nnc2s1 , is growth under 70%?
not fulfilled

Problem: For the molecule COc1cc2cc(Oc3ccc(NC(=O)c4cccc(C(F)(F)F)c4)cc3)c(C)nc2cc1OCCN(C)C , is growth under 70%?
not fulfilled

Problem: For the molecule O=C(/C=C1\C=CN(CCCCCCF)c2ccccc21)n1ccc2ccccc21 , is growth under 70%?
not fulfilled

Problem: For the molecule CC(C)C[C@H]1C(=O)O[C@H](C(C)C)C(=O)N(C)[C@@H](C(C)C)C(=O)O[C@H](C(C)C)C(=O)N(C)[C@@H](C(C)C)C(=O)O[C@H](C(C)C)C(=O)N1C , is growth under 70%?
fulfilled

Problem: For the molecule CC1OC(O[C@@H]2[C@H](O)C(CO)OC(O[C@H]3COC(O[C@H]4CC[C@]5(C)[C@H]6CC[C@]78OC[C@@]9(CCC(C)(C)C[C@H]97)[C@H](O)C[C@@]8(C)[C@]6(C)CC[C@H]5C4(C)C)[C@@H](OC4OC(CO)[C@@H](O)[C@@H](O)[C@@H]4O)[C@@H]3O)[C@H]2OC2OC[C@@H](O)[C@@H](O)[C@@H]2O)[C@@H](O)[C@@H](O)[C@H]1O (some centres not stated) , is growth under 70%?
fulfilled

Problem: For the molecule O=C1[C@H]2Cc3c([nH]c4ccccc34)[C@@H](c3c(Cl)cccc3Cl)N2C(=O)CN1C1CCN(Cc2ccccc2)CC1 , is growth under 70%?
not fulfilled

Problem: For the molecule COc1cc(/C=N/n2cnc3oc(-c4ccccc4)cc3c2=N)cc(CN2CCCCC2)c1O , is growth under 70%?
fulfilled

Problem: For the molecule COc1ccc(-c2cc(-c3cccc4ccccc34)n3c(n2)nc2ccccc23)cc1 , is growth under 70%?
fulfilled

Problem: For the molecule COc1cc(C2=NN(C(C)=O)C(c3ccc(N4CCOCC4)cc3)C2)cc(OC)c1OC (configuration not stated) , is growth under 70%?
not fulfilled

Problem: For the molecule C/C(=C(/C)C1CC1CCN(C(=O)c1ccc([N+](=O)[O-])cc1)S(=O)(=O)c1ccc(C)cc1)C1CCCCC1 (configuration not stated) , is growth under 70%?
not fulfilled
